STUDY_TARGET: UniProt:Q9P2K8
ASSAY_SUMMARY: GCN2 enzyme inhibition assay (Transcreener ADP2 fluorescence polarization)
Format: biochemical
CONDITION_SET: Enzyme activity for compounds of Formula IV; Ki(app), 280 μM ATP, 25° C.
Each entry below carries its recorded Ki.

Consider the following illustrative entries.
NS(=O)(=O)N1CCCN(c2ccnc(-c3cnc4cnc(C(F)F)cn34)n2)CC1 [IV-101] : 100 to 1000 nM
FC(F)c1cn2c(-c3cccc(-c4cccc5[nH]ccc45)n3)cnc2cn1 [IV-233] : 10 to 100 nM
NC(=O)[C@H]1CCCN(c2ccnc(-c3cnc4cnc(C(F)F)cn34)n2)C1 [IV-50] : 10 to 100 nM

For the next question, use this compound.
Ask | Ki for CC1CN(c2ccnc(-c3cnc4cnc(C(F)(F)F)cn34)n2)C(C)C(c2c[nH]cn2)O1 (single isomer, unassigned) [IV-639] ?
Reply | < 10 nM

----------
STUDY_TARGET: intracellular GCN2 (phosphorylation of the GCN2 substrate eIF2α) (Homo sapiens, UniProt Q9P2K8)
Sequence (Q9P2K8 whole entry): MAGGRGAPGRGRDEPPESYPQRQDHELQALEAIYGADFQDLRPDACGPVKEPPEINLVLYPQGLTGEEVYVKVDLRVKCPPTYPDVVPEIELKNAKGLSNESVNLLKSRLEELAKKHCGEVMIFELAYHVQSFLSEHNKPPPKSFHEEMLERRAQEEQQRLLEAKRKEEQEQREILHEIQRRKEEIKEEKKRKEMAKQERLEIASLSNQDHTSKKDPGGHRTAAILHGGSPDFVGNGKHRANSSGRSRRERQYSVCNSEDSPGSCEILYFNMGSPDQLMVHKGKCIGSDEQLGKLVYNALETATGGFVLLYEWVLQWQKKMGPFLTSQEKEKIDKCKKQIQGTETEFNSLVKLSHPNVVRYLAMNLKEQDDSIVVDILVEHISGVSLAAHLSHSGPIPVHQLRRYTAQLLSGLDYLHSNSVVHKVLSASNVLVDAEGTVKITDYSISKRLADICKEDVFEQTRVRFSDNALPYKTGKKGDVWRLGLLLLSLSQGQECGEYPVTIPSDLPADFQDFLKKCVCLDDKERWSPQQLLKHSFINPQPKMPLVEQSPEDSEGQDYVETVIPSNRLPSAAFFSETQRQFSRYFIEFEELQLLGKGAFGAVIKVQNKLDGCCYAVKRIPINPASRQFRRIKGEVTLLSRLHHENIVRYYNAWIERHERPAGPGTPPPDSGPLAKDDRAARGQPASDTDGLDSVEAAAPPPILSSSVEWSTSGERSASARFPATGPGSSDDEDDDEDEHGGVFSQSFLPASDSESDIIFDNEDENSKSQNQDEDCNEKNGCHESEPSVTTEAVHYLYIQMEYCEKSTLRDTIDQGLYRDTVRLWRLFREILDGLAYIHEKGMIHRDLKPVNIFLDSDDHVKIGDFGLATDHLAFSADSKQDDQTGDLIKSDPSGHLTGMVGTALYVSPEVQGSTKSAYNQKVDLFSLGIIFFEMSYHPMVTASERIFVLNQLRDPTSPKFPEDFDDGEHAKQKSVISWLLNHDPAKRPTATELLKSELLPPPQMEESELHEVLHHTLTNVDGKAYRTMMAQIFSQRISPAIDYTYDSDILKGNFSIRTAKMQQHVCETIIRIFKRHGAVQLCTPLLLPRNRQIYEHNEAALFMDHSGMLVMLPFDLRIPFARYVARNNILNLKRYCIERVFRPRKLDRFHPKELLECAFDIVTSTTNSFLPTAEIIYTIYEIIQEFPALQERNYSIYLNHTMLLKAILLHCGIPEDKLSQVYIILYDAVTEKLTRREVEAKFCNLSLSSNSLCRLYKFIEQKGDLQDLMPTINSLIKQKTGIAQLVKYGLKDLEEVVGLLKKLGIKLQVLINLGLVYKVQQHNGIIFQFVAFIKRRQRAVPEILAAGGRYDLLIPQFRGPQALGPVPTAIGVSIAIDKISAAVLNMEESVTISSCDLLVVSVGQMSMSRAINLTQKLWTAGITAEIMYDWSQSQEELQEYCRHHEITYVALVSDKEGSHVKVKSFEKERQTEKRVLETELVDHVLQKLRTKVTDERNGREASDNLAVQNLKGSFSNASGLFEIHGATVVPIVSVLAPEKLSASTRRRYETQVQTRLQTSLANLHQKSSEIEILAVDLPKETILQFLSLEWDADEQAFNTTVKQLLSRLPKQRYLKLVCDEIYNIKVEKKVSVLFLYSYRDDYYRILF
ASSAY_SUMMARY: GCN2 cellular inhibition assay (AlphaScreen SureFire P-eIF2α Ser51, borrelidin-treated U2OS cells)
Assay type: cell-based
CONDITION_SET: compounds of Formula II; biomarker assay, phosphorylated eIF2α Ser51 in borrelidin-treated U2OS cells
RECORDED_METRIC: IC50

Ask | IC50 for CN(C)S(=O)(=O)NCC1CN(c2cc(-c3cnc4ccc(C(F)F)nn34)ncn2)CCO1 (stereo not shown) ?
Reply | 0.5 to 5 µM

Ask | IC50 for NS(=O)(=O)NCC1CCCN(c2cc(-c3cnc4ccc(C(F)F)nn34)ncn2)C1 (single isomer, unassigned) [II-278] ?
Reply | < 0.5 µM

Ask | IC50 for CS(=O)(=O)NCC1CCCN(c2cc(-c3cnc4ccc(C(F)F)nn34)cnc2CN)C1 (stereo not shown) ?
Reply | > 5 µM

----------
STUDY_TARGET: intracellular GCN2 (phosphorylation of the GCN2 substrate eIF2α) (Homo sapiens, UniProt Q9P2K8)
ASSAY_SUMMARY: GCN2 cellular inhibition assay (AlphaScreen SureFire P-eIF2α Ser51, borrelidin-treated U2OS cells)
Format: cell-based
CONDITION_SET: compounds of Formula IV; biomarker assay, phosphorylated eIF2α Ser51 in borrelidin-treated U2OS cells
pIC50: −log10 of the molar value.
Each entry below carries its recorded pIC50.

CC1CN(c2ccnc(-c3cnc4cnc(C(F)(F)F)cn34)n2)CC(c2cn[nH]c2C(F)(F)F)N1 (single isomer, unassigned) : > 6.30
CC1C(C(N)=O)CCN1c1ccnc(-c2cnc3cnc(C(F)(F)F)cn23)n1 (single isomer, unassigned) [IV-614] : < 5.30
CS(=O)(=O)NCCC1CCCN(c2ccnc(-c3cnc4cnc(C(F)F)cn34)n2)C1 (stereo not drawn) : < 5.30
CC1CN(c2ccnc(-c3cnc4cnc(C(F)(F)F)cn34)n2)C(C)C(c2cn[nH]c2)O1 (single isomer, unassigned) [IV-450] : 5.30 to 6.30
CC1CN(c2ccnc(-c3cnc4cnc(Cl)cn34)n2)CC(CNS(C)(=O)=O)C1(F)F (stereo not drawn) : 5.30 to 6.30

Ask | pIC50 for FC(F)(F)c1cn2c(-c3nccc(N4CCCC(c5cn[nH]c5)C4)n3)cnc2cn1 (single isomer, unassigned) [IV-545] ?
Reply | 5.30 to 6.30

Ask | pIC50 for CC1CN(c2nccc(-c3cnc4cnc(Cl)cn34)n2)C(C)C(c2cn[nH]c2)N1 (single isomer, unassigned) [IV-408] ?
Reply | < 5.30

Ask | pIC50 for FC(F)OC1CC(c2cn[nH]c2)CN(c2ccnc(-c3cnc4cnc(C(F)(F)F)cn34)n2)C1 (stereo not drawn) [IV-472] ?
Reply | 5.30 to 6.30

----------
STUDY_TARGET: GCN2 kinase (Homo sapiens, UniProt Q9P2K8)
Sequence (Q9P2K8 whole entry): as above
ASSAY_SUMMARY: GCN2 enzyme inhibition assay (Transcreener ADP2 fluorescence polarization)
Type: biochemical
CONDITION_SET: Enzyme activity for compounds of Formula IV; Ki(app), 280 μM ATP, 25° C.
RECORDED_METRIC: Ki

Consider the following illustrative entries.
CC1C(c2cn[nH]c2)OCCN1c1ccnc(-c2cnc3cnc(Cl)cn23)n1 (single isomer, unassigned) [IV-244] : 100 to 1000 nM
CC(=O)N1CCN(c2ccnc(-c3cnc4cnc(C(N)=O)cn34)n2)C(C)C1 (stereo not shown) : 100 to 1000 nM
Fc1n[nH]cc1C1CCCN(c2ccnc(-c3cnc4cnc(C(F)(F)F)cn34)n2)C1 (single isomer, unassigned) [IV-491] : < 10 nM

Ask | Ki for CC1CN(c2ccnc(-c3cnc4cnc(C(F)(F)F)cn34)n2)C(C)C(c2cn[nH]c2)N1 (single isomer, unassigned) [IV-345] ?
Reply | 10 to 100 nM

Ask | Ki for CC1CCCN(c2ccnc(-c3cnc4cnc(C(F)F)cn34)n2)C1C (stereo not shown) ?
Reply | 100 to 1000 nM

Ask | Ki for N#Cc1n[nH]cc1C1=CCCN(c2ccnc(-c3cnc4cnc(C(F)(F)F)cn34)n2)C1 ?
Reply | < 10 nM

----------
STUDY_TARGET: UniProt:Q9P2K8
ASSAY_SUMMARY: GCN2 enzyme inhibition assay (Transcreener ADP2 fluorescence polarization)
Type: biochemical
CONDITION_SET: compounds of Formula II; 280 μM ATP, 4 nM GCN2 kinase
pKi: −log10 of the molar value.
Each entry below carries its recorded pKi.

CC1C(CO)CCCN1c1cc(-c2cnc3ccc(C(F)F)nn23)ncn1 (stereo not drawn) [II-373] : > 8.00
CC1CN(c2cc(-c3cnc4ccc(C(F)F)nn34)ncn2)C(C)C(CNS(C)(=O)=O)=C1F (stereo not drawn) : > 8.00
FC(F)c1ccc2ncc(-c3cc(C4CCCN(C5COC5)C4)ncn3)n2n1 (single isomer, unassigned) [II-241] : < 6.00

Ask | GET /values?readout=pKi&system=UniProt:Q9P2K8&item= OC[C@H]1CCCN(c2cc(-c3cnc4ccc(C(F)F)nn34)ncn2)C1
Reply | 6.00 to 8.00

Ask | GET /values?readout=pKi&system=UniProt:Q9P2K8&item= C[C@H]1CN(c2cc(-c3cnc4ccc(C(F)F)nn34)ncc2F)C[C@@H](CNS(C)(=O)=O)C1(F)F
Reply | > 8.00

----------
STUDY_TARGET: GCN2 kinase (Homo sapiens)
ASSAY_SUMMARY: GCN2 enzyme inhibition assay (Transcreener ADP2 fluorescence polarization)
Format: biochemical
CONDITION_SET: Enzyme activity for compounds of Formula IV; Ki(app), 280 μM ATP, 25° C.
pKi: −log10 of the molar value.
RECORDED_METRIC: pKi

Cc1nc(C2CCCN(c3ccnc(-c4cnc5cnc(Br)cn45)n3)C2)c[nH]1 (stereo not drawn) [IV-355] : > 8.00
FC(F)(F)c1cn2c(-c3ccnc(N4CCOC(c5cn[nH]c5)C4)n3)cnc2cn1 (single isomer, unassigned) [IV-185] : 7.00 to 8.00
FC(F)c1cn2c(-c3nccc(N4CCCCCC4)n3)cnc2cn1 : 6.00 to 7.00
N#CCC1CCCN(c2ccnc(-c3cnc4cnc(C(F)F)cn34)n2)C1 (stereo not drawn) : 6.00 to 7.00
FC(F)(F)c1cn2c(-c3nccc(N4CCC(c5c[nH]nc5C(F)(F)F)C4)n3)cnc2cn1 (single isomer, unassigned) [IV-628] : 7.00 to 8.00

Ask | pKi for NC(=O)c1cn2c(-c3cccc(N4CCC(O)CC4)n3)cnc2cn1 ?
Reply | 7.00 to 8.00

Ask | pKi for Cc1nc(C2CCCN(c3ccnc(-c4cnc5cnc(Br)cn45)n3)C2)c[nH]1 (single isomer, unassigned) [IV-375] ?
Reply | > 8.00

Ask | pKi for Cc1n[nH]c(C)c1C1CN(c2ccnc(-c3cnc4cnc(C(F)(F)F)cn34)n2)CC(C)N1 (single isomer, unassigned) [IV-467] ?
Reply | 6.00 to 7.00

Ask | pKi for OCc1n[nH]cc1C1CCN(c2ccnc(-c3cnc4cnc(C(F)(F)F)cn34)n2)C1 (stereo not drawn) ?
Reply | 7.00 to 8.00

----------
STUDY_TARGET: GCN2 kinase (Homo sapiens)
ASSAY_SUMMARY: GCN2 enzyme inhibition assay (Transcreener ADP2 fluorescence polarization)
Format: biochemical
CONDITION_SET: Enzyme activity for compounds of Formula IV; Ki(app), 280 μM ATP, 25° C.
Each entry below carries its recorded Ki.

Ask | GET /values?readout=Ki&system=GCN2 kinase (Homo sapiens)&item= CC1CN(c2ccnc(-c3cnc4cnc(C(F)(F)F)cn34)n2)C(C)(C)C1 (stereo not drawn) [IV-610]
Reply | 100 to 1000 nM

Ask | GET /values?readout=Ki&system=GCN2 kinase (Homo sapiens)&item= FC(F)(F)c1cn2c(-c3nccc(N4CCC(c5cn[nH]c5)C4)n3)cnc2cn1 (single isomer, unassigned) [IV-541]
Reply | 10 to 100 nM

Ask | GET /values?readout=Ki&system=GCN2 kinase (Homo sapiens)&item= NC(=O)C1COCCN(c2ccnc(-c3cnc4cnc(C(F)(F)F)cn34)n2)C1 (stereo not drawn) [IV-425]
Reply | 100 to 1000 nM

Ask | GET /values?readout=Ki&system=GCN2 kinase (Homo sapiens)&item= CC1(C(N)=O)CCN(c2ccnc(-c3cnc4cnc(C(F)(F)F)cn34)n2)C1 (stereo not drawn) [IV-581]
Reply | 100 to 1000 nM

Ask | GET /values?readout=Ki&system=GCN2 kinase (Homo sapiens)&item= CS(=O)(=O)N=S1(=O)CCN(c2ccnc(-c3cnc4cnc(C(F)(F)F)cn34)n2)CC1 [IV-727]
Reply | > 1000 nM

Ask | GET /values?readout=Ki&system=GCN2 kinase (Homo sapiens)&item= FC(F)(F)c1cn2c(-c3nccc(-c4cnn(C5CCOC5)c4)n3)cnc2cn1 (stereo not drawn) [IV-449]
Reply | 100 to 1000 nM

Ask | GET /values?readout=Ki&system=GCN2 kinase (Homo sapiens)&item= FC(F)c1cn2c(-c3nccc(N4CCCC(c5c[nH]cn5)C4)n3)cnc2cn1 (stereo not drawn) [IV-53]
Reply | 10 to 100 nM

Ask | GET /values?readout=Ki&system=GCN2 kinase (Homo sapiens)&item= N#CCCN1CCN(c2ccnc(-c3cnc4cnc(C(F)(F)F)cn34)n2)CC1 [IV-620]
Reply | 100 to 1000 nM

Ask | GET /values?readout=Ki&system=GCN2 kinase (Homo sapiens)&item= FC(F)(F)c1cn2c(-c3nsc(N4CCOC(c5cn[nH]c5)C4)n3)cnc2cn1 (stereo not drawn) [IV-704]
Reply | 100 to 1000 nM

Ask | GET /values?readout=Ki&system=GCN2 kinase (Homo sapiens)&item= NS(=O)(=O)C1CCCN(c2ccnc(-c3cnc4cnc(C(F)F)cn34)n2)C1 (stereo not drawn) [IV-56]
Reply | 100 to 1000 nM

Ask | GET /values?readout=Ki&system=GCN2 kinase (Homo sapiens)&item= NC(=O)CN1CCCN(c2ccnc(-c3cnc4cnc(C(F)(F)F)cn34)n2)CC1 [IV-566]
Reply | 100 to 1000 nM

Ask | GET /values?readout=Ki&system=GCN2 kinase (Homo sapiens)&item= CC(=O)NCC1CCN(c2ccnc(-c3cnc4cnc(C(F)(F)F)cn34)n2)C1 (stereo not drawn) [IV-537]
Reply | 100 to 1000 nM

Ask | GET /values?readout=Ki&system=GCN2 kinase (Homo sapiens)&item= O=C1CCCN1CC1CCN(c2ccnc(-c3cnc4cnc(C(F)(F)F)cn34)n2)C1 (stereo not drawn) [IV-557]
Reply | 100 to 1000 nM

Ask | GET /values?readout=Ki&system=GCN2 kinase (Homo sapiens)&item= CN1CCN(c2cccc(-c3cnc4cnc(C(N)=O)cn34)n2)CC1 [IV-212]
Reply | 100 to 1000 nM

Ask | GET /values?readout=Ki&system=GCN2 kinase (Homo sapiens)&item= FC(F)(F)c1cn2c(-c3nccc(N4CCCC(n5ccnn5)C4)n3)cnc2cn1 (stereo not drawn) [IV-493]
Reply | 10 to 100 nM

Ask | GET /values?readout=Ki&system=GCN2 kinase (Homo sapiens)&item= CC1CN(c2ccnc(-c3cnc4cnc(C(F)(F)F)cn34)n2)C(C)C(c2cn[nH]c2)O1 (stereo not drawn) [IV-416]
Reply | < 10 nM

Ask | GET /values?readout=Ki&system=GCN2 kinase (Homo sapiens)&item= FC(F)(F)c1cn2c(-c3nccc(N4CCCC5(COC5)C4)n3)cnc2cn1 [IV-523]
Reply | 100 to 1000 nM

Ask | GET /values?readout=Ki&system=GCN2 kinase (Homo sapiens)&item= FC(F)(F)c1cn2c(-c3nccc(N4CCC(c5ccncc5)C4)n3)cnc2cn1 (stereo not drawn) [IV-550]
Reply | 100 to 1000 nM
